Recorded normalized growth by entry
- ASSAY_REMARKS: chemical genetic growth profiling, strain panel (AID 1159580);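 further: tested at 20 µM; growth read once vehicle control cultures reached saturation at 30 °C; 1 = growth at the plate median or of vehicle wells; lower values mean less growth of the strain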
- TEST_CONTEXT: S. cerevisiae deletion strains, growth OD, locus YDR392W, strain spt3, stronger effect = lower value
The campaign covered roughly 5,500 compounds. About 2,000 (36%) were called active. Roughly 18% stayed inconclusive and do not appear here. The list shows a part of the results.
Give only the figure.

MOLECULE: C#CCN(C)Cc1ccccc1
normalized growth: 0.958
//
MOLECULE: C=C1CCC2[C@](C)(CO)[C@H](O)CC[C@@]2(C)[C@@H]1C/C=C1/C(=O)OC[C@H]1O (stereo partly specified)
normalized growth: 0.998
//
MOLECULE: OCC(O)CN1CCN(c2ccccc2)CC1 (stereo unspecified)
normalized growth: 0.931
//
MOLECULE: CCC[C@H](N[C@@H](C)C(=O)N1[C@H](C(=O)O)C[C@@H]2CCCC[C@@H]21)C(=O)OCC
normalized growth: 0.981
//
MOLECULE: COC(=O)[C@@H]1OC(=O)C2OC23[C@@]1(C)CCC1[C@]2(C)C(C[C@H](O)[C@]13C)C(C)(C)[C@H](OC(C)=O)C[C@@H]2OC(C)=O (stereo partly specified)
normalized growth: 1.03
//
MOLECULE: C=C[C@@](C)(O)CCC1C(=C)C[C@H](OC(C)=O)C2C(C)(C)CCCC12C (stereo partly specified)
normalized growth: 0.562

Kindly review the next molecule as well.
Q: normalized growth lookup needed for c1ccc2c(c1)sc1ccccc12 , thanks.
A: 0.588

----------
- ASSAY_REMARKS: chemical genetic growth profiling, strain panel (AID 1159580);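 further: tested at 20 µM; growth read once vehicle control cultures reached saturation at 30 °C; 1 = growth at the plate median or of vehicle wells; lower values mean less growth of the strain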
- TEST_CONTEXT: S. cerevisiae deletion strains, growth OD, locus YER133W, strain GLC7
Hit rate of the full screen: of about 5,500 compounds, about 2,000 (36%) were called active. Another 18% or so got no clear call; they are omitted. Rule as the data show it: active = normalized growth mostly below about 0.91 (no sharp cut-off); inconclusive = no clear call, values can overlap the other calls; inactive = mostly above about 0.92. Some of the results follow.
Response enum: active, inactive

MOLECULE: CC(C)c1ccc(COC(=O)Nc2ccc(CSc3ccc(Cl)cc3)o2)cc1
CAT: inactive

MOLECULE: O=C(c1csc(-c2ccc(Cl)cc2)c1)N1CCCCC1
CAT: inactive

MOLECULE: O=C(ON=C1CCCCC1)c1ccc([N+](=O)[O-])cc1
CAT: inactive

MOLECULE: O=[N+]([O-])c1ccc(ON=C2CCCCC2)c([N+](=O)[O-])c1
CAT: inactive

Q: Assay result, entry CC(=O)c1ccc(Cl)c(NS(=O)(=O)c2cc(Cl)c(Cl)cc2Cl)c1 — outcome?
A: inactive

Q: How about this molecule: O=[N+]([O-])c1ccc(-c2noc(-c3ccno3)n2)o1
A: active

Q: How about this molecule: N#C/C(=N/Nc1ccc(F)cc1)C(=O)c1ccccc1
A: inactive

----------
- ASSAY_REMARKS: chemical genetic growth profiling, strain panel (AID 1159580);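 further: tested at 20 µM; growth read once vehicle control cultures reached saturation at 30 °C; 1 = growth at the plate median or of vehicle wells; lower values mean less growth of the strain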
- TEST_CONTEXT: S. cerevisiae deletion strains, growth OD, locus YDR318W, strain mcm21
About 2,000 (36%) of roughly 5,500 compounds were called active. Inconclusive results (about 18%) are left out. Cut-off read from the data, not from the text of the source: active = normalized growth mostly below about 0.91 (no sharp cut-off); inconclusive = no clear call, values can overlap the other calls; inactive = mostly above about 0.92. This is one part of the list.
Response enum: yes = active, no = inactive

Example results:
COMPOUND: Cc1ccccc1C(OCCN(C)C)c1ccccc1 (configuration not stated)
CAT: no
//
COMPOUND: Oc1ccc2c(c1)O[C@H](c1ccc(O)c(O)c1)[C@@H](O)C2
CAT: no
//
COMPOUND: C=C1C2CC[C@@]3(C)[C@H](c4ccoc4)OC(=O)C[C@]13O[C@H]1CC(=O)C(C)(C)[C@H](C(OC(C)=O)C(=O)OC)[C@@]21C (some centres not stated)
CAT: no
//
COMPOUND: CC1COc2c(N3CCN(C)CC3)c(F)cc3c(=O)c(C(=O)O)cn1c23 (configuration not stated)
CAT: no
//
COMPOUND: C[C@]12CCC(=O)C=C1C=CC1C2CC[C@@]2(C)C1CC[C@@]21CCC(=O)O1 (some centres not stated)
CAT: no
//
COMPOUND: CC[C@@]1(O)C[C@H](O[C@H]2C[C@H](N(C)C)[C@H](O)[C@H](C)O2)c2c(cc3c(c2O)C(=O)c2c(O)cccc2C3=O)[C@H]1C(=O)OC
CAT: yes
//
COMPOUND: CN(C)CCOC(c1ccc(Cl)cc1)c1ccccn1 (configuration not stated)
CAT: no
//
COMPOUND: CCC1(O)CC(OC2CC(N(C)C)C(OC3CC(O)C(OC4CCC(=O)C(C)O4)C(C)O3)C(C)O2)c2c(cc3c(c2O)C(=O)c2c(O)cccc2C3=O)C1C(=O)OC (configuration not stated)
CAT: no
//
COMPOUND: C[C@H]1COc2c(N3CCN(C)CC3)c(F)cc3c(=O)c(C(=O)O)cn1c23
CAT: no
//
COMPOUND: O=C(O)/C=C/c1ccc(O)c(O)c1
CAT: no

Q: Assay result, entry COc1ccc(C(c2ccc(OC)cc2)C(Cl)(Cl)Cl)cc1 — outcome?
A: no

Q: How about this compound: CCCCCCCCCCC[C@@H](C[C@H]1OC(=O)[C@H]1CCCCCC)OC(=O)[C@@H](CC(C)C)NC=O
A: no

Q: How about this compound: O=C(O[C@@H]1Cc2c(O)cc(O)cc2O[C@@H]1c1cc(O)c(O)c(O)c1)c1cc(O)c(O)c(O)c1
A: no

Q: How about this compound: Oc1cc(O)c2c(c1)O[C@H](c1ccc(O)c(O)c1)[C@H](O)C2
A: no

Q: How about this compound: O=C(OCC(O)CO)c1ccccc1Nc1ccnc2cc(Cl)ccc12 (configuration not stated)
A: no

Q: How about this compound: COc1c(N2CCNC(C)C2)c(F)cc2c(=O)c(C(=O)O)cn(C3CC3)c12 (configuration not stated)
A: no
